Target or system: T1, human NMI (N-myc Interacting protein) (human, UniProt Q13287 1-307, limits assumed)
T1 construct: Immunogen and ELISA coating antigen; also called hNMI; antigen 1
T1 sequence (looked up): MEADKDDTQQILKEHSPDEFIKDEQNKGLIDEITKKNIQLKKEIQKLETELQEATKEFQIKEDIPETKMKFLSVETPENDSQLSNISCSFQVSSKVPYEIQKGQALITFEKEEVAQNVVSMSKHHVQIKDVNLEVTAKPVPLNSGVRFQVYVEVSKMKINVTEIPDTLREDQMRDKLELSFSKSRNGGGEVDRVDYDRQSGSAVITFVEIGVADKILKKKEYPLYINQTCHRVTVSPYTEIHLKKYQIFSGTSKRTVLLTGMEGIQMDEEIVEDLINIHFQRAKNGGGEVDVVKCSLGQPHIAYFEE
Assay protocol: I-ELISA, hNMI coated 1 ug/mL; antibody 39.0625 ng/mL
Where OD450 equals or exceeds 0.8 OD450, the correct label is YES; where it does not, the label is NO.

- Binder: "94C4 (antibody, V domains shown, Rabbit monoclonal antibody; also called 94C4-1; 94C4-1-biotin (biotin-labelled form)) VH: QSLEESGGGLVQPEGSLTLTCKASGFDFSSNAMCWVRQAPGKGLEWIACISSASSGSSGSTYYASWAKGRFTISKTSSTTVTLQMTSLTAADMATYFCARDGYDLWGPGTLVTVSS VL: QVLTQTPSSVSAAVGGTVTISCQSSPSVYNNYLSWFQQKPGQSPKLLIYRVSTLASGVPSRFSGSGSGTQFTLTISGVQCDDAATYYCAGGYDSASDTYVFGGGTEVVVK"
  Class label: "YES"
- Binder: "39B4 (antibody, V domains shown, Rabbit monoclonal antibody; also called 39B4-1; 39B4-1-biotin (biotin-labelled form)) VH: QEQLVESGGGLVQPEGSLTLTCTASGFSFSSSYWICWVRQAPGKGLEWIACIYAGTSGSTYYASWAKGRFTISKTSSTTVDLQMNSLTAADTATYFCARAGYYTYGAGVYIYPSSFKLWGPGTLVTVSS VL: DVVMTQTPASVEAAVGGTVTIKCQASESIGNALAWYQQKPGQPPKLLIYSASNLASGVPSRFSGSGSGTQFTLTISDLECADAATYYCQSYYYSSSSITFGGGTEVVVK"
  Class label: "YES"
- Binder: "B-8 (antibody, V domains shown, Rabbit monoclonal antibody; also called B8-1; B-8-biotin (biotin-labelled form)) VH: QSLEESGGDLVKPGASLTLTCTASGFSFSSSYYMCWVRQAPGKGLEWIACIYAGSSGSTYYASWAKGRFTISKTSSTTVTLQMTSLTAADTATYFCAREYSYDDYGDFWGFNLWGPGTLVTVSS VL: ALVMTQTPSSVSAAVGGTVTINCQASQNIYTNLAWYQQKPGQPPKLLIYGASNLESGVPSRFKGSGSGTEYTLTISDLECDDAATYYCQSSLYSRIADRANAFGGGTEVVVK"
  Class label: "YES"
- Binder: "98G10 (antibody, V domains shown, Rabbit monoclonal antibody; also called 98G10-1; 98G10-1-biotin (biotin-labelled form)) VH: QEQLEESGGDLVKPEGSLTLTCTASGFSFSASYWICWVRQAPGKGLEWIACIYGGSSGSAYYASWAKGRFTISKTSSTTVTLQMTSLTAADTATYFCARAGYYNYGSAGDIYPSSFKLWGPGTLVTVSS VL: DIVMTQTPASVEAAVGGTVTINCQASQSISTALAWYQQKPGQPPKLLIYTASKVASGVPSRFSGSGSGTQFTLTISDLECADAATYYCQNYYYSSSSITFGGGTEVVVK"
  Class label: "NO"
- Binder: "240B10-1 (antibody, V domains shown, Rabbit monoclonal antibody; also called 240B10-1-biotin (biotin-labelled form)) VH: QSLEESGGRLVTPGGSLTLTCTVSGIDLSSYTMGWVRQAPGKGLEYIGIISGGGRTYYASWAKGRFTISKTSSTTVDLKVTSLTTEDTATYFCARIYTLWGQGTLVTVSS VL: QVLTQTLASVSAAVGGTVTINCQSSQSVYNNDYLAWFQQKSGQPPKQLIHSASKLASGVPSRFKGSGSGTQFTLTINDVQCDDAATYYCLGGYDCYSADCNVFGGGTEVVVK"
  Class label: "YES"
